molecular target: Ras farnesyl transferase (Homo sapiens, UniProt P49354+P49356); construct: made in house; assay: In vitro inhibitory activity for Ras farnesyl transferase, K-Ras substrate; type: biochemical; details: in vitro farnesyl transferase assay, K-Ras; read-out: K-Ras IC50
pIC50: −log10 of the molar value.
// not satisfied strictly below 8 in pIC50; satisfied otherwise

molecule: N#Cc1ccc(Cn2cncc2Cn2cc(C(=O)c3cccs3)c(-c3cccc4ccccc34)c2)cc1 [Compound 73]
assignedCategory: not satisfied

molecule: CN1CCN(C(=O)c2cn(Cc3cncn3Cc3ccccc3F)cc2-c2cccc3ccccc23)CC1 [Compound 135]
assignedCategory: satisfied

molecule: O=C(c1cn(Cc2cncn2Cc2ccc3c(c2)OCO3)cc1-c1cccc2ccccc12)N1CCOCC1 [Compound 2]
assignedCategory: satisfied

molecule: COC(=O)c1sc(Cc2cncn2CC2CCN(C(=O)OCc3ccccc3)CC2)nc1-c1cccc2ccccc12 [Compound 150]
assignedCategory: not satisfied

molecule: O=C(c1cn(Cc2cncn2Cc2ccc(Br)cc2)nc1-c1cccc2ccccc12)N1CCOCC1 [Compound 160]
assignedCategory: not satisfied

molecule: COCCN(C)C(=O)c1sc(Cc2cncn2CC2CCN(C(=O)OCc3ccccc3)CC2)nc1-c1cccc2ccccc12 [Compound 151]
assignedCategory: not satisfied

molecule: Cn1cncc1Cn1cc(C(=O)N2CCOCC2)c(-c2cccc3ccccc23)n1 [Compound 163]
assignedCategory: not satisfied

molecule: COCCN(C)C(=O)c1cn(Cc2cncn2CCc2ccccc2Cl)cc1-c1cccc2ccccc12 [Compound 23]
assignedCategory: satisfied

molecule: COCCN(C)C(=O)c1cn(Cc2cncn2CCCc2ccccc2)cc1-c1cccc2ccccc12 [Compound 27]
assignedCategory: satisfied

molecule: CN1CCN(C(=O)c2cn(Cc3cncn3CCc3ccc4ccccc4c3)cc2-c2cccc3ccccc23)CC1 [Compound 42]
assignedCategory: satisfied

molecule: COC(=O)N1CCC(Cn2cncc2Cn2cc(C(=O)N3CCOCC3)c(-c3cccc4ccccc34)n2)CC1 [Compound 159]
assignedCategory: not satisfied

molecule: CN1CCN(C(=O)c2cn(Cc3cncn3CCc3ccccc3)cc2-c2cccc3ccccc23)CC1 [Compound 16]
assignedCategory: satisfied

molecule: Cn1cnc(Cn2cc(C(=O)c3ccc(F)cc3)c(-c3cccc4ccccc34)c2)c1 [Compound 78]
assignedCategory: not satisfied

molecule: O=C(c1nc(Cc2cnc[nH]2)oc1-c1cccc2ccccc12)N1CCOCC1 [Compound 143]
assignedCategory: not satisfied

molecule: COC(=O)c1nc(Cc2cncn2Cc2ccc(Cl)cc2)sc1-c1cccc2ccccc12 [Compound 145]
assignedCategory: not satisfied

molecule: COCCN(C)C(=O)c1cn(Cc2cncn2Cc2ccc(C#N)cc2)cc1-c1cccc2ccccc12 [Compound 110]
assignedCategory: satisfied

molecule: COCCN(C)C(=O)c1cn(Cc2cncn2Cc2ccc3ccccc3c2)cc1-c1cccc2ccccc12 [Compound 29]
assignedCategory: satisfied
